Sourced from patent US20230012273A1

# system name: T1, Human SIRPαV1 (NP_542970.1), Extracellular Domain + His-Tag (human, UniProt P78324 31-373)
# T1 construct: also called huSIRPαV1; hSIRPαV1; not shown: His-Tag
# T1 sequence (P78324 other isoform, or with tags, fused parts or gaps): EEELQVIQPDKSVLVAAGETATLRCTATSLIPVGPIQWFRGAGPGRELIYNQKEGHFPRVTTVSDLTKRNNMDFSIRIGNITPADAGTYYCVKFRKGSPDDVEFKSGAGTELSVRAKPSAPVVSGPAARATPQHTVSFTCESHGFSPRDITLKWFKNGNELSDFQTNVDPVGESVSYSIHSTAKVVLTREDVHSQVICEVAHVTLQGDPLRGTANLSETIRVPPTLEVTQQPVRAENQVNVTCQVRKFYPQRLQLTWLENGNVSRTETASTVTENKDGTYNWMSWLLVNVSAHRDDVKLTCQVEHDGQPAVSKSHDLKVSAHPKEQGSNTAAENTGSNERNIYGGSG
# protocol details: SPR, antibody captured on Protein A/G, ECD-His analyte, 1:1 fit
Entries and their kon
Supply the numeric figure in M⁻¹ s⁻¹, leaving out any unit text.

Consider the worked cases shown below.
>  <binder>
Antibody E13 (antibody, human IgG1, kappa, L234A L235A, V domains shown) VH: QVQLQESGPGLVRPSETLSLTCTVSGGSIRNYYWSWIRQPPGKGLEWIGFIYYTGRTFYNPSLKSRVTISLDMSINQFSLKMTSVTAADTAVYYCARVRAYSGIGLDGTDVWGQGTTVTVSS VL: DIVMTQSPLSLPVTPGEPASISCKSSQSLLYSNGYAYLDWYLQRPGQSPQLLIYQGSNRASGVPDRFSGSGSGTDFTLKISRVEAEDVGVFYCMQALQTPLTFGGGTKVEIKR

>  <kon / M⁻¹ s⁻¹>
394000

$$$$
>  <binder>
Antibody E7 (antibody, human IgG1, kappa, L234A L235A, V domains shown) VH: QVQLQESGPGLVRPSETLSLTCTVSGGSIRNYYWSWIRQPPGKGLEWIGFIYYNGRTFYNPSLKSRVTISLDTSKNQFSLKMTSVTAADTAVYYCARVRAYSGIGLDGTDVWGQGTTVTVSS VL: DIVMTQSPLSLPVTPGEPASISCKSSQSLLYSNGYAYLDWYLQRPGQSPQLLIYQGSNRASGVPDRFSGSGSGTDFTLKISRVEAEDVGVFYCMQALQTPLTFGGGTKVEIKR

>  <kon / M⁻¹ s⁻¹>
378000

$$$$

Attention now turns to another entry.
IN: GET /values?readout=kon&item= Antibody E8 (antibody, human IgG1, kappa, L234A L235A, V domains shown) VH: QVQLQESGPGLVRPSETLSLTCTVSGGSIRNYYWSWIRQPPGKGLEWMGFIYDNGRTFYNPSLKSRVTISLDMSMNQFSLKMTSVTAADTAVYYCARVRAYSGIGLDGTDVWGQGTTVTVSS VL: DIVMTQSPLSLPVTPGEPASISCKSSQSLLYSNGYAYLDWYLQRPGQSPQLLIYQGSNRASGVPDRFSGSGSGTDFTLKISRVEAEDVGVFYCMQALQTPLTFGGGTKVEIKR
OUT: 322000
